experiment: In vivo pharmacokinetic studies in mice; set-up: species or system Balb/C mice; conditions: mouse, plasma; Balb/C mice, single dose IV 5 mg/kg; read-out: AUCinf

| Molecule | AUC(0-inf) |
| --- | --- |
| CC[C@H](N)c1csc(C(=O)c2c[nH]c3cc(F)ccc23)n1 [ARI-186] | 13500 ng·h/mL |

---

experiment: In vivo pharmacokinetic studies in rats; parameters: species or system SD rats; details: Sprague-Dawley, rat, plasma, po, 10 mg/kg, rats, repeat 10 mg/kg PO QD, Day 5, individual animal
Assay Metric: MRT last at 5 day (h)

| Structure Smiles | Quantity Unit | Measured |
| --- | --- | --- |
| CC[C@H](N)c1csc(C(=O)c2c[nH]c3cc(F)ccc23)n1 | h | 11.6 |

---

Assay: In vivo pharmacokinetic studies in rats
Parameters: species or system SD rats
Settings: Sprague-Dawley, rat, plasma, po, 10 mg/kg, rats, repeat 10 mg/kg PO QD, Day 1, individual animal
Experimental: This example describes pharmacokinetic (PK) studies of ARI-164, ARI-165, ARI-186, ARI-224, and ARI-226 in mice and rats. In the present studies, the test compounds were given to groups of mice and/or rats (N=3 in each group), intravenously (IV) at 2 mg/kg or orally (PO) at 10, 30, or 40 mg/kg. […] Plasma concentrations of the test compounds were determined by HPLC.
Listing of recorded half-life at 1 day by entry.
Assay Metric: half-life at 1 day (h)

| Compound | Assay Metric | Measured |
| --- | --- | --- |
| N[C@@H](c1csc(C(=O)c2c[nH]c3cc(F)ccc23)n1)C(F)(F)F [ARI-224] | half-life at 1 day | 2.05 |
| CC[C@H](N)c1csc(C(=O)c2c[nH]c3cc(F)ccc23)n1 [ARI-186] | half-life at 1 day | 6.44 |

---

experiment: In vivo pharmacokinetic studies in mice; design: species or system Balb/C mice; settings: Balb/C, mouse, plasma; mice, single 40 mg/kg oral dose, from mean profile
Assay Metric: Cmax (ng/mL)

| Structure Smiles | Assay Metric | Measured |
| --- | --- | --- |
| CC[C@H](O)c1csc(C(=O)c2c[nH]c3cc(F)ccc23)n1 | Cmax | 1870 |

---

Molecular target: CYP1A2 (Homo sapiens)
Construct: from tissue; host or cells: human liver microsomes
Sequence (P05177 1-516): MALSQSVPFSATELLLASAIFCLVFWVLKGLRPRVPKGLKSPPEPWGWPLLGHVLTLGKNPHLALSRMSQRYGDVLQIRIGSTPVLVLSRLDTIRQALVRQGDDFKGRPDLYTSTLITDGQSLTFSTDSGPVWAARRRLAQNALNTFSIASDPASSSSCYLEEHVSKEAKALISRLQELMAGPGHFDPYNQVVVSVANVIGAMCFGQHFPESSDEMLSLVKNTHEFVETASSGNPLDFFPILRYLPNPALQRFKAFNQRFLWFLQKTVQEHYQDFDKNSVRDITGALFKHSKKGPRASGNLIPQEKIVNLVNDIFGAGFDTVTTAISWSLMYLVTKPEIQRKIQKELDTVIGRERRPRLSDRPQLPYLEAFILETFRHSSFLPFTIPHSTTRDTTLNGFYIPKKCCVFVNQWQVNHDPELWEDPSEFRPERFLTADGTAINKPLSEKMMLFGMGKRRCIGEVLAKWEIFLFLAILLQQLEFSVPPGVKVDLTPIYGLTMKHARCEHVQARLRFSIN
Assay: CYP profiling: human liver microsomes with CYP1A2 inhibitor furafylline
Type: in vitro ADME
Conditions: HLMs, 30 min
Assay Metric: % Inhibition Relative to Negative Control, 1A2

| Molecule | Measured |
| --- | --- |
| CC[C@H](O)c1csc(C(=O)c2c[nH]c3cc(F)ccc23)n1 | 89% |
| NC(c1csc(C(=O)c2c[nH]c3ccccc23)n1)C(F)(F)F (stereo not drawn) | 100% |
| N[C@H](c1csc(C(=O)c2c[nH]c3ccccc23)n1)C(F)(F)F | 74% |
| CC(C)(N)c1csc(C(=O)c2c[nH]c3cc(F)ccc23)n1 | None |
| N[C@H](c1csc(C(=O)c2c[nH]c3cc(F)ccc23)n1)C(F)(F)F | 85% |
| N[C@@H](c1csc(C(=O)c2c[nH]c3ccccc23)n1)C(F)(F)F | None |
| CC[C@@H](N)c1csc(C(=O)c2c[nH]c3cc(F)ccc23)n1 | None |
| CC(C)(O)c1csc(C(=O)c2c[nH]c3cc(F)ccc23)n1 | 100% |
| CC[C@H](N)c1csc(C(=O)c2c[nH]c3cc(F)ccc23)n1 | 23% |

---

Experiment: In vivo pharmacokinetic studies in rats
Design: species or system SD rats
Details: Sprague-Dawley (SD), rat, plasma, po, 10 mg/kg, rats, repeat 10 mg/kg PO QD, Day 1, Mean of 3 animals
Description: This example describes pharmacokinetic (PK) studies of ARI-164, ARI-165, ARI-186, ARI-224, and ARI-226 in mice and rats. In the present studies, the test compounds were given to groups of mice and/or rats (N=3 in each group), intravenously (IV) at 2 mg/kg or orally (PO) at 10, 30, or 40 mg/kg. […] Plasma concentrations of the test compounds were determined by HPLC.
Assay Metric: MRT last at 1 day (h)

| Structure Smiles | Measured |
| --- | --- |
| N[C@@H](c1csc(C(=O)c2c[nH]c3cc(F)ccc23)n1)C(F)(F)F | 2.48 |
| CC[C@H](N)c1csc(C(=O)c2c[nH]c3cc(F)ccc23)n1 | 8.06 |

---

test: In vivo pharmacokinetic studies in rats; set-up: species or system SD rats; conditions: Sprague-Dawley (SD), rat, plasma, po, 10 mg/kg, rats, single 10 mg/kg PO dose, Mean of 3 animals

| Structure Smiles | MRT inf |
| --- | --- |
| CC[C@@H](O)c1csc(C(=O)c2c[nH]c3cc(F)ccc23)n1 | 3.08 h |
| CC[C@H](O)c1csc(C(=O)c2c[nH]c3cc(F)ccc23)n1 | 2.87 h |

---

target: CYP3A4 (Homo sapiens); construct: from tissue; host or cells: human liver microsomes; experiment: CYP profiling: human liver microsomes with CYP3A4 inhibitor ketoconazole; format: in vitro ADME; conditions: HLMs, 30 min
Sequence (P08684 whole entry): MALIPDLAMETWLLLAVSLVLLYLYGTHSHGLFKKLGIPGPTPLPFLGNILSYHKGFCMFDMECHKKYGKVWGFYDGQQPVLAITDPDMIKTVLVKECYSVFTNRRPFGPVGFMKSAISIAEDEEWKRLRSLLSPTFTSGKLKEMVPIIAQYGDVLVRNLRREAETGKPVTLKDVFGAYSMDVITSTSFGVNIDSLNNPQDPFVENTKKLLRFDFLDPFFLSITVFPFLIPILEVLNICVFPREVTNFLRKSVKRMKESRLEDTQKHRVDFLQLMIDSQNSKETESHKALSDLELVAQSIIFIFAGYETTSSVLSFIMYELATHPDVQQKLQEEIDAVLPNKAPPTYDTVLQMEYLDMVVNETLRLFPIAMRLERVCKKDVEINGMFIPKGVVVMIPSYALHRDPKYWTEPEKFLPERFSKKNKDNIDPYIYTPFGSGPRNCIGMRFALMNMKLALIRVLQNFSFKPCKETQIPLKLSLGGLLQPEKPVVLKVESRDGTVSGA
Assay Metric: % Inhibition Relative to Negative Control, 3A4

| Molecule | Measured |
| --- | --- |
| O=C(c1nc([C@@H](O)C(F)(F)F)cs1)c1c[nH]c2cc(F)ccc12 [ARI-211] | None |
| NC1(c2csc(C(=O)c3c[nH]c4cc(F)ccc34)n2)CC1 [ARI-225] | 26% |
| CC[C@@H](N)c1csc(C(=O)c2c[nH]c3ccc(F)cc23)n1 [ARI-219] | None |
| CCOc1ccc(NC(C)=O)cc1 [Phenacitin] | 36% |
| CC[C@@H](N)c1csc(C(=O)c2c[nH]c3cc(F)ccc23)n1 [ARI-187] | 25% |

---

experiment: In vivo pharmacokinetic studies in mice; design: species or system Balb/C mice; details: mouse, plasma; Balb/C mice, single dose PO 10 mg/kg; read-out: AUClast
Assay Metric: AUC(0-t) (ng·h/mL)

| Molecule | Measured |
| --- | --- |
| CC[C@H](N)c1csc(C(=O)c2c[nH]c3cc(F)ccc23)n1 [ARI-186] | 16100 |

---

assay: In vivo pharmacokinetic studies in mice; parameters: species or system Balb/C mice; conditions: Balb/C, mouse, plasma; mice, single 40 mg/kg oral dose, from mean profile; read-out: t1/2 (converted)
Assay Metric: half-life (h)

| Structure Smiles | Measured |
| --- | --- |
| CC[C@H](O)c1csc(C(=O)c2c[nH]c3cc(F)ccc23)n1 | 1.4 |

---

assay: In vivo pharmacokinetic studies in mice; set-up: species or system Balb/C mice; conditions: mouse, plasma; Balb/C mice, single dose IV 5 mg/kg; read-out: T1/2 (converted)

| Structure Smiles | Quantity Unit | half-life |
| --- | --- | --- |
| CC[C@H](N)c1csc(C(=O)c2c[nH]c3cc(F)ccc23)n1 | min | 457 |

---

biological target: CYP3A4 (Homo sapiens); construct: from tissue; host or cells: human liver microsomes; assay: CYP profiling: human liver microsomes with CYP3A4 inhibitor ketoconazole; assay type: in vitro ADME; parameters: concentration or dose not given beside the values; details: HLMs
Assay Metric: % Compound Metabolized at 30 min, CYP3A4 Inhibitor (%)

| Compound | Quantity Unit | Measured |
| --- | --- | --- |
| CCOc1ccc(NC(C)=O)cc1 [Phenacitin] | % | 23 |
| CC[C@H](O)c1csc(C(=O)c2c[nH]c3cc(F)ccc23)n1 [ARI-164] | % | 34 |
| CC[C@@H](N)c1csc(C(=O)c2c[nH]c3ccc(F)cc23)n1 [ARI-219] | % | 23 |
| CC(C)(N)c1csc(C(=O)c2c[nH]c3cc(F)ccc23)n1 [ARI-226] | % | 11 |
| CC[C@H](N)c1csc(C(=O)c2c[nH]c3cc(F)ccc23)n1 [ARI-186] | % | 12 |
| CC[C@@H](N)c1csc(C(=O)c2c[nH]c3cc(F)ccc23)n1 [ARI-187] | % | 3 |
| CC[C@H](N)c1csc(C(=O)c2c[nH]c3ccc(F)cc23)n1 [ARI-218] | % | 0 |
| O=C(c1nc(C2(O)CC2)cs1)c1c[nH]c2cc(F)ccc12 [ARI-221] | % | 82 |
